Data provenance is patent US9828366B2.

# measuredOn: hSGLT1 (Homo sapiens)
# Construct: FLAG
# Sequence (P13866 1-664): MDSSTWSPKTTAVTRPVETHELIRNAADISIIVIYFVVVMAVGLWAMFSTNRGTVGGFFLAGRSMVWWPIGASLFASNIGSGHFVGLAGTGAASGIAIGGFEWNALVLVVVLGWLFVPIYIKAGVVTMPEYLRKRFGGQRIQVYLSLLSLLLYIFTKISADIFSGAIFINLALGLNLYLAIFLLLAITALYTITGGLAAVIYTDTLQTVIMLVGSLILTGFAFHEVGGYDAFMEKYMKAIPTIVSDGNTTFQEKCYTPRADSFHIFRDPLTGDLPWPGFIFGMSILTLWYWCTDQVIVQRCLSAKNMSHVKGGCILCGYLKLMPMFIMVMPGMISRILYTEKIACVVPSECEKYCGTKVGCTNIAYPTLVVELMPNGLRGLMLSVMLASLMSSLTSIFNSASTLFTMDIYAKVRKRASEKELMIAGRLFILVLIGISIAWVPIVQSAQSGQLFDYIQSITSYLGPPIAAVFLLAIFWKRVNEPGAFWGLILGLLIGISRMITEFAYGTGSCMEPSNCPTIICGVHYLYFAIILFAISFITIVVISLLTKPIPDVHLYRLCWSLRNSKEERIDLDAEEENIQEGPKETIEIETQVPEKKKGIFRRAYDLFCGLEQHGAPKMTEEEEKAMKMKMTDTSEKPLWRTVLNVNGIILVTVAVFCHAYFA
# measurementProtocol: [14C]-AMG uptake assay in HEK293-hSGLT1 cells
# measurementSetup: HEK293-hSGLT1 stable cell line
pIC50: −log10 of the molar value.
reportedEndpoint: pIC50

Example compounds with recorded pIC50:
- entrySmiles: "CC(C)(C)c1ccc(Cc2cc([C@@H]3O[C@H](CO)[C@@H](O)[C@H](O)[C@H]3O)cc3c2CCC3)cc1"
  measuredOn: "hSGLT1 (Homo sapiens)"
  pIC50: 6.75
- entrySmiles: "OC[C@H]1O[C@@H](c2cc3c(c(Cc4ccc5c(c4)OCCO5)c2)CCC3)[C@H](O)[C@@H](O)[C@@H]1O"
  measuredOn: "hSGLT1 (Homo sapiens)"
  pIC50: 7.26
- entrySmiles: "OC[C@H]1O[C@@H](c2cc3c(c(Cc4ccc5c(c4)OCO5)c2)CCC3)[C@H](O)[C@@H](O)[C@@H]1O"
  measuredOn: "hSGLT1 (Homo sapiens)"
  pIC50: 7.45
- entrySmiles: "Cc1ccc(Cc2cc([C@@H]3O[C@H](CO)[C@@H](O)[C@H](O)[C@H]3O)cc3c2CCC3)cc1C"
  measuredOn: "hSGLT1 (Homo sapiens)"
  pIC50: 7.20
- entrySmiles: "OC[C@H]1O[C@@H](c2cc3c(c(Cc4ccc(C(F)(F)F)cc4)c2)CCC3)[C@H](O)[C@@H](O)[C@@H]1O"
  measuredOn: "hSGLT1 (Homo sapiens)"
  pIC50: 6.57

A = OC[C@H]1O[C@@H](c2cc3c(c(Cc4ccc(Cl)cc4)c2)CCC3)[C@H](O)[C@@H](O)[C@@H]1O
B = OC[C@H]1O[C@@H](c2cc3c(c(Cc4cc5ccccc5s4)c2)CCC3)[C@H](O)[C@@H](O)[C@@H]1O
Pick the one with the larger pIC50: A vs B // output: label of the selected item
B

====

# measuredOn: hSGLT1 (Homo sapiens, UniProt P13866)
# Construct: FLAG; expressed in transfected cells
# measurementProtocol: [14C]-AMG uptake assay in HEK293-hSGLT1 cells
# Assay type: cell-based
# measurementSetup: HEK293-hSGLT1 stable cell line
pIC50: −log10 of the molar value.
reportedEndpoint: pIC50

Example molecules with recorded pIC50:
- molecule: "CCc1ccc(Cc2cc([C@@H]3O[C@H](CO)[C@@H](O)[C@H](O)[C@H]3O)cc3c2CCC3)cc1 [Example 16]"
  measuredOn: "hSGLT1 (Homo sapiens, UniProt P13866)"
  pIC50: 7.26
- molecule: "OC[C@H]1O[C@@H](c2cc3c(c(Cc4ccc(OC(F)(F)F)cc4)c2)CCC3)[C@H](O)[C@@H](O)[C@@H]1O [Example 22]"
  measuredOn: "hSGLT1 (Homo sapiens, UniProt P13866)"
  pIC50: 6.29

I = OC[C@H]1O[C@@H](c2cc3c(c(Cc4ccc(OCC(F)(F)F)cc4)c2)CCC3)[C@H](O)[C@@H](O)[C@@H]1O [Example 34]
II = COc1ccc(Cc2cc([C@@H]3O[C@H](CO)[C@@H](O)[C@H](O)[C@H]3O)cc3c2CCC3)cc1 [Example 14]
Pick the one with the larger pIC50: I vs II // output: label of the selected item
II
(II: 7.50, I: 6.26)
